tested_target: HRgpA-6H (Porphyromonas gingivalis) (UniProt P28784)
method_notes: ELISA on coated HRgpA-6H
property_name: OD450nm

[[record]]
binder = "KB001 mouse Fab FASEBA VH N100E (Fab, V domains shown) VH: EVQLKQSGPGLVAPSQSLSITCTVSGFSLSIYSVHWVRQPPGKGLEWLGMIWGGGSSDYNSALKSRLSISKDNSKSQVFLKMNSLQTDDTAMYYCARNGEFYAMDYWGQGTSVTVSS VL: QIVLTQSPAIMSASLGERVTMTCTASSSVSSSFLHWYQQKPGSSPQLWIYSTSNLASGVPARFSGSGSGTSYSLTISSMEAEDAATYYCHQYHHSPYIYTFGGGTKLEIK"
meas_value = 0.886

[[record]]
binder = "KB001 mouse Fab FASEBA VH S30R (Fab, V domains shown) VH: EVQLKQSGPGLVAPSQSLSITCTVSGFSLRIYSVHWVRQPPGKGLEWLGMIWGGGSSDYNSALKSRLSISKDNSKSQVFLKMNSLQTDDTAMYYCARNGNFYAMDYWGQGTSVTVSS VL: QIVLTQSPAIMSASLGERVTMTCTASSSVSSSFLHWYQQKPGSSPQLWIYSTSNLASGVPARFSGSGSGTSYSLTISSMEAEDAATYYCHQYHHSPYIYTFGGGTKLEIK"
meas_value = 0.481

[[record]]
binder = "KB001 mouse Fab FASEBA VH I51V (Fab, V domains shown) VH: EVQLKQSGPGLVAPSQSLSITCTVSGFSLSIYSVHWVRQPPGKGLEWLGMVWGGGSSDYNSALKSRLSISKDNSKSQVFLKMNSLQTDDTAMYYCARNGNFYAMDYWGQGTSVTVSS VL: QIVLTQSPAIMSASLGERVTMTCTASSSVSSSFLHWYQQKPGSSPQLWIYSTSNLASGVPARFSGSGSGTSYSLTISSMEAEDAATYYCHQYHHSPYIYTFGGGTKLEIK"
meas_value = 0.798

